All values here come from ChEMBL document CHEMBL1131307.

# assayed-system: Human immunodeficiency virus type 1 reverse transcriptase (Human immunodeficiency virus 1, UniProt Q72547, K103N)
# measurement-description: Inhibitory activity against HIV-1 Mutant Reverse transcriptase K103N
pIC50: −log10 of the molar value.
Hi, to clarify the labels: YES covers pIC50 from 7 upward, NO covers anything below 7.

* CCN1c2ncc(COc3ccncc3)cc2C(=O)N(C)c2cccnc21 | YES
* CCN1c2ncc(COc3cccc(C(=O)O)c3)cc2C(=O)N(C)c2ccc(Cl)nc21 | NO
* CCN1c2ncc(CSc3ccccc3)cc2C(=O)N(C)c2ccc(Cl)nc21 | YES

###

Listed next: entries and their corresponding pIC50.
# assayed-system: Human immunodeficiency virus type 1 reverse transcriptase (Human immunodeficiency virus 1, UniProt Q72547, Y181C)
# measurement-description: Inhibitory activity against HIV-1 Y181C reverse transcriptase.
pIC50: −log10 of the molar value.
measured-metric: pIC50

• CCN1c2ncc(COc3cc[n+]([O-])cc3)cc2C(=O)N(C)c2cccnc21 = 5.87
• CCN1c2ncc(COc3cc[n+]([O-])c(C)c3)cc2C(=O)N(C)c2ccc(Cl)nc21 = 6.68
• CCN1c2ncc(COc3cc[n+]([O-])c(C(F)(F)F)c3)cc2C(=O)N(C)c2ccc(Cl)nc21 = 6.57
• CCN1c2ncc(C[S+]([O-])c3ccccc3)cc2C(=O)N(C)c2ccc(Cl)nc21 (stereo not given) = 6.85
• CCN1c2ncc(COc3ccncc3)cc2C(=O)N(C)c2cccnc21 = 6.85
• CCN1c2ncc(COc3cccc(C(N)=O)c3)cc2C(=O)N(C)c2ccc(Cl)nc21 = 6.55
• CCN1c2ncc(CSc3[nH]cnc4nncc3-4)cc2C(=O)N(C)c2ccc(Cl)nc21 = 7.15
• CCN1c2ncc(COc3ccc(F)cc3)cc2C(=O)N(C)c2ccc(Cl)nc21 = 5.78
• CCN1c2ncc(COc3ccccc3)cc2C(=O)N(C)c2ccc(Cl)nc21 = 7.22
• CCN1c2ncc(COc3ccnc(C)c3)cc2C(=O)N(C)c2ccc(Cl)nc21 = 7.52
